- Test system: Stenotrophomonas maltophilia
- experimentalProtocol: Antimicrobial activity against Stenotrophomonas maltophilia assessed as inhibition of growth incubated for 18 hrs by CLSI guidelines based assay
- Type: functional
// reported MIC for each item listed
assayMetric: MIC (µg/mL)

smilesText	testSystem	numericValue
CCCCCCCCCC[N+](C)(C)CCCOc1cc(OCCC[N+](C)(C)CCCCCCCCCC)cc(OCCC[N+](C)(C)CCCCCCCCCC)c1.[Br-].[Br-].[Br-]	Stenotrophomonas maltophilia	4
CCCCCC[N+](C)(C)CCCCOc1cc(OCCCC[N+](C)(C)CCCCCC)cc(OCCCC[N+](C)(C)CCCCCC)c1.[Br-].[Br-].[Br-]	Stenotrophomonas maltophilia	128
C[N+](C)(CCCCCOc1ccccc1)CCCCCOc1cc(OCCCCC[N+](C)(C)CCCCCOc2ccccc2)cc(OCCCCC[N+](C)(C)CCCCCOc2ccccc2)c1.[Br-].[Br-].[Br-]	Stenotrophomonas maltophilia	2
C[N+](C)(CCCCc1ccccc1)CCCOc1cc(OCCC[N+](C)(C)CCCCc2ccccc2)cc(OCCC[N+](C)(C)CCCCc2ccccc2)c1.[Br-].[Br-].[Br-]	Stenotrophomonas maltophilia	128
C[N+](C)(CCCCOc1cc(OCCCC[N+](C)(C)CCCCc2ccccc2)cc(OCCCC[N+](C)(C)CCCCc2ccccc2)c1)CCCCc1ccccc1.[Br-].[Br-].[Br-]	Stenotrophomonas maltophilia	32
CCCCCCCC[N+](C)(C)CCCCOc1cc(OCCCC[N+](C)(C)CCCCCCCC)cc(OCCCC[N+](C)(C)CCCCCCCC)c1.[Br-].[Br-].[Br-]	Stenotrophomonas maltophilia	2

* * *

- Tested on: Escherichia coli
- experimentalProtocol: Antimicrobial activity against Escherichia coli assessed as inhibition of growth incubated for 18 hrs by CLSI guidelines based assay
- Type: functional

smilesText	MIC
CCCCCCCCCCCC[N+](C)(C)CCCCCOc1cc(OCCCCC[N+](C)(C)CCCCCCCCCCCC)cc(OCCCCC[N+](C)(C)CCCCCCCCCCCC)c1.[Br-].[Br-].[Br-]	64 µg/mL
CCCCCC[N+](C)(C)CCCCCOc1cc(OCCCCC[N+](C)(C)CCCCCC)cc(OCCCCC[N+](C)(C)CCCCCC)c1.[Br-].[Br-].[Br-]	8 µg/mL
CCCCCCCCCC[N+](C)(C)CCCCOc1cc(OCCCC[N+](C)(C)CCCCCCCCCC)cc(OCCCC[N+](C)(C)CCCCCCCCCC)c1.[Br-].[Br-].[Br-]	4 µg/mL
C[N+](C)(CCCOc1cc(OCCC[N+](C)(C)CCCc2ccccc2)cc(OCCC[N+](C)(C)CCCc2ccccc2)c1)CCCc1ccccc1.[Br-].[Br-].[Br-]	> 128 µg/mL
CCCCCCCCCC[N+](C)(C)CCCOc1cc(OCCC[N+](C)(C)CCCCCCCCCC)cc(OCCC[N+](C)(C)CCCCCCCCCC)c1.[Br-].[Br-].[Br-]	4 µg/mL
CN[C@H](CC(C)C)C(=O)N[C@H]1C(=O)N[C@@H](CC(N)=O)C(=O)N[C@H]2C(=O)N[C@H]3C(=O)N[C@H](C(=O)N[C@H](C(=O)O)c4cc(O)cc(O)c4-c4cc3ccc4O)[C@H](O)c3ccc(c(Cl)c3)Oc3cc2cc(c3O[C@@H]2O[C@H](CO)[C@@H](O)[C@H](O)[C@H]2O[C@H]2C[C@](C)(N)[C@H](O)[C@H](C)O2)Oc2ccc(cc2Cl)[C@H]1O	2 µg/mL
C[N+](C)(CCCCCOc1ccccc1)CCCCOc1cc(OCCCC[N+](C)(C)CCCCCOc2ccccc2)cc(OCCCC[N+](C)(C)CCCCCOc2ccccc2)c1.[Br-].[Br-].[Br-]	16 µg/mL
CCCCCCCC[N+](C)(C)CCCCOc1cccc(OCCCC[N+](C)(C)CCCCCCCC)c1OCCCC[N+](C)(C)CCCCCCCC.[Br-].[Br-].[Br-]	2 µg/mL
C[N+](C)(CCCCc1ccccc1)CCCOc1cc(OCCC[N+](C)(C)CCCCc2ccccc2)cc(OCCC[N+](C)(C)CCCCc2ccccc2)c1.[Br-].[Br-].[Br-]	128 µg/mL
C[N+](C)(CCCCCOc1cc(OCCCCC[N+](C)(C)CCCOc2ccccc2)cc(OCCCCC[N+](C)(C)CCCOc2ccccc2)c1)CCCOc1ccccc1.[Br-].[Br-].[Br-]	2 µg/mL
CCCCCC[N+](C)(C)CCCCOc1cc(OCCCC[N+](C)(C)CCCCCC)cc(OCCCC[N+](C)(C)CCCCCC)c1.[Br-].[Br-].[Br-]	128 µg/mL
C[N+](C)(CCCCOc1ccccc1)CCCCOc1cc(OCCCC[N+](C)(C)CCCCOc2ccccc2)cc(OCCCC[N+](C)(C)CCCCOc2ccccc2)c1.[Br-].[Br-].[Br-]	64 µg/mL
C[N+](C)(CCCCOc1cc(OCCCC[N+](C)(C)CCCOc2ccccc2)cc(OCCCC[N+](C)(C)CCCOc2ccccc2)c1)CCCOc1ccccc1.[Br-].[Br-].[Br-]	> 128 µg/mL
C[N+](C)(CCCCOc1ccccc1)CCCOc1cc(OCCC[N+](C)(C)CCCCOc2ccccc2)cc(OCCC[N+](C)(C)CCCCOc2ccccc2)c1.[Br-].[Br-].[Br-]	128 µg/mL
C[N+](C)(CCCCCOc1cc(OCCCCC[N+](C)(C)CCCc2ccccc2)cc(OCCCCC[N+](C)(C)CCCc2ccccc2)c1)CCCc1ccccc1.[Br-].[Br-].[Br-]	8 µg/mL
CCCCCCCCCCCC[N+](C)(C)CCCCOc1cc(OCCCC[N+](C)(C)CCCCCCCCCCCC)cc(OCCCC[N+](C)(C)CCCCCCCCCCCC)c1.[Br-].[Br-].[Br-]	8 µg/mL
CCCCCCCC[N+](C)(C)CCCCOc1cc(OCCCC[N+](C)(C)CCCCCCCC)cc(OCCCC[N+](C)(C)CCCCCCCC)c1.[Br-].[Br-].[Br-]	2 µg/mL
C[N+](C)(CCCCCOc1ccccc1)CCCCCOc1cc(OCCCCC[N+](C)(C)CCCCCOc2ccccc2)cc(OCCCCC[N+](C)(C)CCCCCOc2ccccc2)c1.[Br-].[Br-].[Br-]	1 µg/mL

* * *

- Tested on: Staphylococcus aureus
- experimentalProtocol: Antimicrobial activity against Staphylococcus aureus assessed as inhibition of growth incubated for 18 hrs by CLSI guidelines based assay
- Assay type: functional

smilesText	unitAbbreviation	MIC
C[N+](C)(CCCCOc1cc(OCCCC[N+](C)(C)CCCOc2ccccc2)cc(OCCCC[N+](C)(C)CCCOc2ccccc2)c1)CCCOc1ccccc1.[Br-].[Br-].[Br-]	µg/mL	4
C[C@@H](O)[C@H]1C(=O)N2C(C(=O)O)=C(S[C@@H]3CN[C@H](C(=O)N(C)C)C3)[C@H](C)[C@H]12	µg/mL	0.5
CCCCCCCCCC[N+](C)(C)CCCCOc1cc(OCCCC[N+](C)(C)CCCCCCCCCC)cc(OCCCC[N+](C)(C)CCCCCCCCCC)c1.[Br-].[Br-].[Br-]	µg/mL	4
C[N+](C)(CCCOc1cc(OCCC[N+](C)(C)CCCc2ccccc2)cc(OCCC[N+](C)(C)CCCc2ccccc2)c1)CCCc1ccccc1.[Br-].[Br-].[Br-]	µg/mL	32
C[N+](C)(CCCCCOc1ccccc1)CCCOc1cc(OCCC[N+](C)(C)CCCCCOc2ccccc2)cc(OCCC[N+](C)(C)CCCCCOc2ccccc2)c1.[Br-].[Br-].[Br-]	µg/mL	4

* * *

- experimentalProtocol: Selectivity index, ratio of HC50 for sheep red blood cells to MIC for Staphylococcus aureus
- Format: toxicity, cell-based, RBC
- recordedConditions: read-out: Selectivity Index
// reported selectivity ratio for each item listed

smilesText	selectivity ratio
CCCCCCCCCC[N+](C)(C)CCCOc1cc(OCCC[N+](C)(C)CCCCCCCCCC)cc(OCCC[N+](C)(C)CCCCCCCCCC)c1.[Br-].[Br-].[Br-]	54
CCCCCCCCCC[N+](C)(C)CCCCCOc1cc(OCCCCC[N+](C)(C)CCCCCCCCCC)cc(OCCCCC[N+](C)(C)CCCCCCCCCC)c1.[Br-].[Br-].[Br-]	4
C[N+](C)(CCCCOc1cc(OCCCC[N+](C)(C)CCCc2ccccc2)cc(OCCCC[N+](C)(C)CCCc2ccccc2)c1)CCCc1ccccc1.[Br-].[Br-].[Br-]	> 160
CCCCCCCCCCCC[N+](C)(C)CCCCOc1cc(OCCCC[N+](C)(C)CCCCCCCCCCCC)cc(OCCCC[N+](C)(C)CCCCCCCCCCCC)c1.[Br-].[Br-].[Br-]	1.38
C[N+](C)(CCCOc1cc(OCCC[N+](C)(C)CCCc2ccccc2)cc(OCCC[N+](C)(C)CCCc2ccccc2)c1)CCCc1ccccc1.[Br-].[Br-].[Br-]	> 40
C[N+](C)(CCCCCOc1cc(OCCCCC[N+](C)(C)CCCCOc2ccccc2)cc(OCCCCC[N+](C)(C)CCCCOc2ccccc2)c1)CCCCOc1ccccc1.[Br-].[Br-].[Br-]	> 1280
C[N+](C)(CCCCCOc1ccccc1)CCCCCOc1cc(OCCCCC[N+](C)(C)CCCCCOc2ccccc2)cc(OCCCCC[N+](C)(C)CCCCCOc2ccccc2)c1.[Br-].[Br-].[Br-]	> 1280
CCCCCC[N+](C)(C)CCCCOc1cc(OCCCC[N+](C)(C)CCCCCC)cc(OCCCC[N+](C)(C)CCCCCC)c1.[Br-].[Br-].[Br-]	> 40
C[N+](C)(CCCCOc1ccccc1)CCCOc1cc(OCCC[N+](C)(C)CCCCOc2ccccc2)cc(OCCC[N+](C)(C)CCCCOc2ccccc2)c1.[Br-].[Br-].[Br-]	> 40
CCCCCCCC[N+](C)(C)CCCCOc1cc(OCCCC[N+](C)(C)CCCCCCCC)cc(OCCCC[N+](C)(C)CCCCCCCC)c1.[Br-].[Br-].[Br-]	> 2560
C[N+](C)(CCCCCOc1ccccc1)CCCOc1cc(OCCC[N+](C)(C)CCCCCOc2ccccc2)cc(OCCC[N+](C)(C)CCCCCOc2ccccc2)c1.[Br-].[Br-].[Br-]	> 320

The reported numbers originate from ChEMBL document CHEMBL6071176.
